Catalogue of apparent KD of MS2 coat protein readings, one per entry.
- System: MS2 coat protein
- method-summary: apparent KD of MS2 coat protein; designed switch direction (-1 OFF switch, 1 ON switch): -1; higher = weaker reporter binding
- condition-summary: Eterna round: R95; input ligand: none
Field: numeric (nM). Do not append units.

A selection of reference data follows.
[[record]]
sequence_data = "CUGGUCCGAGGAUAUAUUAAGUGAAACAUGAGGAUCACCCAUGUUAUUUAAUGGAAGUAAAUAGAAGGCGGACUAG [Mat - Exclusion 5 - JL mod - D54] (puzzle: Exclusion 5)"
result_type = "apparent KD of MS2 coat protein"
uom = "nM"
value_observed = 43.5

[[record]]
sequence_data = "UCAUGUAUGUAGGAUAUCGAUGUCUGCGGACAUCGAGAAGGACGUACAUGAGGAUCACCCAUGUAACUUGCAUG [Exclusion 6 - B - 11:e] (puzzle: Exclusion 6)"
result_type = "apparent KD of MS2 coat protein"
uom = "nM"
value_observed = 13.1

[[record]]
sequence_data = "AGUAGAUCUACGCUUGCGUGGAUCUGCUAUGCAGGUGUUACAUGAGGAUCACCCAUGUCCUCAUUUGUUCGUCUUAU [JL turnoff v2 99.15] (puzzle: Sensor v3, turn-off variant 2)"
result_type = "apparent KD of MS2 coat protein"
uom = "nM"
value_observed = 185


Inquiry: Reported apparent KD of MS2 coat protein for UGGGUACUCCAUAGAAGAAACAUGAGGAUCACCCAUGUAGGGCAAGUUUUUUGCUCGUCAUAGGUUGAGGGAUUGGA [JR_SV3TOV1_Sub016] (puzzle: Sensor v3, turn-off variant 1) : what is it?
Reply text: 978

Inquiry: Likewise for AGUACUAACACGUCGGUGUUAGUACAAUAAGCUUGUGAAACAUGAGGAUCACCCAUGUCCUCAUAAGCUCGUCUUAU [salish99_TOv2_r3_080] (puzzle: Sensor v3, turn-off variant 2) ?
Reply text: 15.5

---

- System: MS2 coat protein
- method-summary: apparent KD of MS2 coat protein; designed switch direction (-1 OFF switch, 1 ON switch): 1; higher = weaker reporter binding
- condition-summary: input ligand: microRNA oligo, concentration not stated
Please mark True if the recorded apparent KD of MS2 coat protein is equal to or greater than 0.1 µM, and False if it falls below.

Some entries whose results are on file:
[[record]]
sequence_data = "CACAUGAGGAUCACCCAUGUGAGGCGGCAAUAAAACCGCGCACAGGAUAUAGCGCUAAGAAUGCGCUAGAAGGGUGAUUAGAAC [Esenla] (Eterna round: R96, puzzle: Same State NG 3)"
assigned_class = "False"

[[record]]
sequence_data = "GUCCAAAACACAGGAUAUCCCAGUCAUGAACUGGGAGAAGGGUGGCCACAUGAGGAUCACCCAUGUGAAGUGCGAGAGGCACGA [Arquarais] (Eterna round: R96, puzzle: Same State NG 1)"
assigned_class = "True"

[[record]]
sequence_data = "GACCGCGAGGAAGGAUAUGGAGCCUUAUUGGCUCCAGAAGGUCCAUAAAGGACAUGAGGAUCACCCAUGUGGGUUGAAGCGGUC [Fiskers NG1ss - 38] (Eterna round: R96, puzzle: Same State NG 1)"
assigned_class = "True"

[[record]]
sequence_data = "AACAAUCUAUCUGAGGAUAUCAUGUCAAAGACAUGAGGAUCACCCAUGUACCAGGAAACUGGUUAUGAGAAGGCAGAUAGAUUGA [SS2: 1115] (Eterna round: R96, puzzle: Same State 2)"
assigned_class = "True"


Here is another sequence to look at.
Inquiry: # bool: apparent KD of MS2 coat protein of AUUAAUUAAUUAAUACAUGAGGAUCACCCAUGUAAUAAGAUCUAGGAUAUCAGCUCGUUUAGAGCUGAGAAGGAGAUCACAUGU [SSNG3/17-A3] (Eterna round: R96, puzzle: Same State NG 3) >= 0.1 µM
Reply text: False
